Tested on: Streptococcus mutans
assayProtocol: anti-bacterial growth inhibition, S. mutans
Type: cell-based
assayConditions: Streptococcus mutans; S. mutans, 50 μM, 10 hours, 30° C., OD 600 nm; read-out: Inhibition rate (50 μM)
Use 6% as the dividing line for inhibition at 50 µM, with the line itself on the Met side and lower values as Not met.

Known results for compounds:
>>> labelclass("CCCC(=O)Oc1ccc(CCc2cc(OC(=O)CCC)cc(OC(=O)CCC)c2)cc1 [DR4]")
"Not met"
>>> labelclass("Oc1ccc(/C=C/c2cc(O)cc(O)c2)cc1 [Trans-resveratrol, trans-resveratrol, reference compound]")
"Not met"
>>> labelclass("C=CC(=O)Oc1ccc(CCc2cc(OC(=O)C=C)cc(OC(=O)C=C)c2)cc1 [DR8]")
"Met"
>>> labelclass("CC(C)(C)C(=O)Oc1ccc(CCc2cc(OC(=O)C(C)(C)C)cc(OC(=O)C(C)(C)C)c2)cc1 [DR11]")
"Met"

Request: hey, is inhibition at 50 µM for this one >= 6%? COc1ccc(C(=O)Oc2ccc(CCc3cc(OC(=O)c4ccc(OC)cc4)cc(OC(=O)c4ccc(OC)cc4)c3)cc2)cc1 [DR6]
Result: Not met

Request: hey, is inhibition at 50 µM for this one >= 6%? CCOC(=O)COc1ccc(CCc2cc(OCC(=O)OCC)cc(OCC(=O)OCC)c2)cc1 [DR1]
Result: Met

Request: hey, is inhibition at 50 µM for this one >= 6%? C=CCOc1ccc(CCc2cc(OCC=C)cc(OCC=C)c2)cc1 [DR3]
Result: Not met

Request: hey, is inhibition at 50 µM for this one >= 6%? CCCOc1ccc(CCc2cc(OCCC)cc(OCCC)c2)cc1 [DR2]
Result: Not met
